# pEC50, cAMP accumulation per record follows
molecular target: human Glucagon receptor (GCGR) (human, UniProt P47871 26-477); experiment: cell-based or functional assay
*1 amine or outer side, *2 acyl side, *3 side chain or, on linkers, in order; H or OH if unused. Bridges are numbered along the chain shown (N, C = ends). Primed or numbered codes have the meaning given here. Where no end group is shown, it is not given here. Side-chain parts run from the residue outwards. [ ]: non-standard residue; d: D form. The star is where a group is joined. dpeg″ = spacer —[CO(CH2)O(CH2)2O(CH2)NH]—, O=C(COCCOCN[*:1])[*:2]; dpeg = —[CO(CH2)O(CH2)2O(CH2)NH]— spacer, O=C(COCCOCN[*:1])[*:2]; C20 diacid = O=C(O)CCCCCCCCCCCCCCCCCCC(=O)*; γGlu = O=C(O)[C@H](CCC(=O)[*:2])N[*:1]; Aib = CC(C)(N)C(=O)O

Reference set (3 entries):
INSERT INTO results (binder, readout_kind, result) VALUES
  ('YSHGTFTSDYSKYLDK([γGlu-γGlu-dpeg″-C20 diacid])KYAEEFVKWLEDEPSSGAPPPS-OH (lactam 20-24) [Compound A12]', 'pEC50, cAMP accumulation', '11.8 pEC50 (-log M)'),
  ('YSHGTFTSDYSKYLDK([γGlu-γGlu-dpeg-C20 diacid])KYAEEFV[Aib]WLESEPSSGAPPPS-OH [Compound A23]', 'pEC50, cAMP accumulation', '11.5 pEC50 (-log M)'),
  ('YSHGTFTSDYSKYLDK([γGlu-γGlu-dpeg-C20 diacid])KYAQEFV[Aib]WLEEEPSSGAPPPS-OH [Compound A15]', 'pEC50, cAMP accumulation', '12.1 pEC50 (-log M)');

Looking for the measured pEC50, cAMP accumulation of YSHGTFTSDYSKYLDK([γGlu-γGlu-dpeg″-C20 diacid])KYAKEFVEWLEDEPSSGAPPPS-OH (lactam 20-24) [Compound A11] , can you help?
11.7 pEC50 (-log M)

For YSHGTFTSDYSKYLDK([γGlu-γGlu-dpeg″-C20 diacid])KYAEKFVKWLESEPSSGAPPPS-OH (lactam 20-24) [Compound A28] then?
11.7 pEC50 (-log M)

For YSHGTFTSDYSKYLDK([γGlu-γGlu-dpeg-C20 diacid])KYAQEFV[Aib]WLESEPSSGAPPPS-OH [Compound A19] then?
12.1 pEC50 (-log M)

For YSHGTFTSDYSKYLDK([γGlu-γGlu-dpeg-C20 diacid])KYASEFV[Aib]WLESEPSSGAPPPS-OH [Compound A24] then?
12.5 pEC50 (-log M)
